Form field: % Positive (one value per entry).
target: T1, human Siglec-7 expressed on human cells (primary monocytes, dendritic cells, macrophages, NK cells, … (human, UniProt Q9Y286 19-467)); assay: FACS, human primary macrophages, 10 ug/ml mAb
T1 construct: Endogenous receptor on cells; also called Siglec-7 receptor
T1 sequence (Q9Y286 19-467): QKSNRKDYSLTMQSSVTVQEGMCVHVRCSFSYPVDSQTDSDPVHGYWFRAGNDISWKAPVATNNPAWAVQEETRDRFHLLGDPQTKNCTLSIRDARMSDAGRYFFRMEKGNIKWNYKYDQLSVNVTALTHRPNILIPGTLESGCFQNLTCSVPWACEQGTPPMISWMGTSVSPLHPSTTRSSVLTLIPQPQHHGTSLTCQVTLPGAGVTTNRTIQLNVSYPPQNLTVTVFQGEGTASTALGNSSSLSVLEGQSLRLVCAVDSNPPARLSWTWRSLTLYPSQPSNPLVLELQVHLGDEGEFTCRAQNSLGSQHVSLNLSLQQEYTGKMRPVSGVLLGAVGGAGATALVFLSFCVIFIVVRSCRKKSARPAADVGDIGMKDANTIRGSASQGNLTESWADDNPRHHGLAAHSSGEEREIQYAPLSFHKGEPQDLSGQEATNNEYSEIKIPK

binder: anti-Siglec-7 antibody 4D7 (antibody, V domains shown, Variable domains assembled from FR and CDR entries) VH: QVQLQQSGAELVKPGASVKLSCKTSGYTFTNYWINWVKQRPGQGLEWIGNIYSGSSRTNYNEKFKSKATLTVDTSSSTAYMQLSSLTSDDSAVYYCAREGLRAMDYWGQGTSVTVSS VL: NZMTQFQKFMSTSVGDRVSLTCKASQKVGTNVAGFQQKPGHSPKAGIYSASTRHRGVQDRFTARGLGSDFILPITTZQLEDLAEYZCHQGNSVQYTFGGGTKLEIK
% Positive (%): 99.4
//
binder: anti-Siglec-7 antibody 4A1 (antibody, V domains shown, Variable domains assembled from FR and CDR entries) VH: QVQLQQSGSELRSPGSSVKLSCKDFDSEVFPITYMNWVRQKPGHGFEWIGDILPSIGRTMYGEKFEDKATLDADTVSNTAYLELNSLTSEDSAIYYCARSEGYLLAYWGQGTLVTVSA VL: DVVMTQTPLSLPVSLGDQASISCRSSQSLVHSTGNIYLHWYLQKPGQSPKLLIYKVSNRFZGVPDRFSGSGSGTDFTLKISRVEAEDLGVYFCSQNTHVPYTFGGGTKLEIK
% Positive (%): 99.3
//
binder: anti-Siglec-7 antibody 1A12 (antibody, V domains shown, also called 1Al2) VH: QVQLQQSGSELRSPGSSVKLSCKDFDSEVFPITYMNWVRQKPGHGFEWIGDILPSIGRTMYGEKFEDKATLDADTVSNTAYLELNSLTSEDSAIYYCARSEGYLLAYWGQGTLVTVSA VL: DVZMTQTPLSLPVSLGDQASISCRSSQSLVHSTGNTYLHWYLQKPGQSPKLLIYKVSNRFSGVPDRFSGSGAGTDFTLKISRVEAEDLGVYFCSQNTHVPYTFGGGTKLEIK
% Positive (%): 99.4
